Numbers sourced from patent US7323458B1.

Items are presented alongside their recorded melting point.
READOUT NAME: melting point

MOL SMILES: C1=C(c2ccc3ccccc3c2)N2CCc3ccccc3N=C2S1
OBSERVED MEASUREMENT: 188.5 to 189.5 °C

MOL SMILES: CCOC(=O)c1ccc(C2=CSC3=Nc4ccccc4CCN23)cc1
OBSERVED MEASUREMENT: 231 to 233 °C

MOL SMILES: CC1=CSC2=Nc3ccccc3CCN12
OBSERVED MEASUREMENT: 194 to 196 °C

MOL SMILES: C1=C(c2ccc(Oc3ccccc3)cc2)N2CCc3ccccc3N=C2S1
OBSERVED MEASUREMENT: 204 to 205 °C
